The measurements presented in this section are drawn from ChEMBL document CHEMBL4673297.

Test system: HeLa
experiment: Cytotoxicity against human HeLa cells assessed as reduction in cell viability at 100 uM measured after 15 hrs hrs by MTT assay
Assay type: cell-based
outcome measure: Activity

- CCCCCCCCCC(=O)O[C@@H]1C[Se][Se]C[C@H]1O (racemic): Non-Toxic
- CCCCCCCCCCCCCC(=O)O[C@@H]1C[Se][Se]C[C@H]1O (racemic): Non-Toxic
- CCCCCC(=O)O[C@@H]1C[Se][Se]C[C@H]1O (racemic): Toxic

====

Test system: HeLa
experiment: Cytotoxicity against human HeLa cells assessed as cell viability at 20 uM measured after 15 hrs by MTT assay relative to control
Format: cell-based
condition parameters: hela, 15 h, 20 µM
outcome measure: Activity

• CCCCCCCCCC(=O)O[C@@H]1C[Se][Se]C[C@H]1O (racemic) = Non-Toxic
• CCC(=O)O[C@@H]1C[Se][Se]C[C@H]1O (racemic) = Toxic
• CCCCCCCCCCCCCC(=O)O[C@@H]1C[Se][Se]C[C@H]1O (racemic) = Non-Toxic
• CCCCCCCCCCCC(=O)O[C@@H]1C[Se][Se]C[C@H]1O (racemic) = Non-Toxic
• CCCCCCCC(=O)O[C@@H]1C[Se][Se]C[C@H]1O (racemic) = Non-Toxic
• O=C(O[C@@H]1C[Se][Se]C[C@H]1O)c1ccccc1 (racemic) = Toxic
• CCCCCC(=O)O[C@@H]1C[Se][Se]C[C@H]1O (racemic) = Toxic
• O=C(O[C@@H]1C[Se][Se]C[C@H]1O)c1ccc2ccccc2c1 (racemic) = Non-Toxic
